Sourced from paper PMC12102759

# screen value annotations
B1: MBOAT1 peptide 17-32 (Lysophospholipid acyltransferase 1), 16-mer library wild type / NSP3 ADRP (ORF1ab Nsp3b ADRP, residues 1023-1192) (parent)
chain 1: STYLHPLSELLGIPLD
chain 2: not shown

Variants of: B1
reported.conditions: with NSP3 ADRP (ORF1ab Nsp3b ADRP, residues 1023-1192); bait immobilised on MaxiSorp plates (10 µg), library pre-cleared on GST, 2 h binding at 4 °C, five washes; one round per day, days 1-4; value from days 2 and 3; keep out of graded; scale: average fractional NGS count over selection days 2 and 3
Respond using a number only.

mutation.label | screen value
chain 1 E9T | 0
chain 1 E9N | 0
chain 1 Y3M | 0.000117
chain 1 E9I | 0
chain 1 L10T | 0

The value of screen value measured for the variant chain 1 T2W turned out to be 2.61e-05

The value of screen value measured for the variant chain 1 S8N turned out to be 0

The value of screen value measured for the variant chain 1 L4R turned out to be 0
